system: HCV (Ib) RNA replication; assay: Cell-based luciferase reporter HCV (1b) RNA replication assay (replicon cell lines Huh-7 5.2 and ET); set-up: species or system Hepatitis C virus; settings: Hepatitis C virus, Huh-7, 96 h, HCV 1b genotype replicon, luciferase readout, 4 days incubation; read-out: EC50_1b
pEC50: −log10 of the molar value.
Reported pEC50 values for a set of molecules

{"molecule": "CC(C)[C@@H](C(=O)N1C[C@@H](C)C[C@H]1c1nc2cc(-c3ccc(-c4ccc5[nH]c([C@@H]6C[C@H](C)CN6C(=O)[C@H](C(C)C)N6CCOC6=O)nc5c4)cc3)ccc2[nH]1)N1CCOC1=O [Compound 306]", "pEC50": "≥ 8.30"}
{"molecule": "CC(C)[C@@H](C(=O)N1CCC[C@H]1c1nc2cc(C#Cc3ccc4[nH]c([C@@H]5CCCN5C(=O)[C@H](C(C)C)N5CCCC5=O)nc4c3)ccc2[nH]1)N1CCCC1=O [Compound 81]", "pEC50": "≥ 8.30"}
{"molecule": "CC(C)[C@H](NC(=O)[C@@H]1CCC(=O)N1)C(=O)N1CCC[C@H]1c1nc2cc(C#Cc3ccc4[nH]c([C@@H]5CCCN5C(=O)[C@@H](NC(=O)[C@@H]5CCC(=O)N5)C(C)C)nc4c3)ccc2[nH]1 [Compound 87]", "pEC50": "< 5.30"}
{"molecule": "COC(=O)N(C)[C@H](C(=O)N1C[C@@H](C)C[C@H]1c1nc2cc(-c3csc4c(-c5ccc6[nH]c([C@@H]7C[C@H](C)CN7C(=O)[C@H](C(C)C)N(C)C(=O)OC)nc6c5)csc34)ccc2[nH]1)C(C)C [Compound 290]", "pEC50": "≥ 8.30"}
{"molecule": "COC(=O)N[C@H](C(=O)N1CCC[C@H]1c1nc2cc(-c3ccc(-c4ccc5nc([C@@H]6CCCN6C(=O)[C@@H](NC(=O)OC)C(C)C)[nH]c5c4)cc3CF)ccc2[nH]1)C(C)C [Compound 220]", "pEC50": "≥ 8.30"}

====

system: HCV (Ib) RNA replication; assay: Cell-based luciferase reporter HCV (1b) RNA replication assay (replicon cell lines Huh-7 5.2 and ET); design: species or system Hepatitis C virus; settings: Hepatitis C virus, Huh-7, 96 h, HCV 1b genotype replicon, luciferase readout, 4 days incubation; read-out: EC50_1b
Overview of reported EC50 across a group of compounds:
readoutName: EC50

{"compound": "COC(=O)N[C@H](C(=O)N1CCC[C@H]1c1nc2cc(C#Cc3ccc4[nH]c([C@@H]5CCCN5C(=O)OC(C)(C)C)nc4c3)ccc2[nH]1)C(C)C [Compound 34]", "readoutName": "EC50", "result": "5 to 5000 nM"}
{"compound": "O=C(OCc1ccccc1)N1CCCC[C@H]1c1nc2cc(C#CC#Cc3ccc4[nH]c([C@@H]5CCCCN5C(=O)OCc5ccccc5)nc4c3)ccc2[nH]1 [Compound 41]", "readoutName": "EC50", "result": "5 to 5000 nM"}
{"compound": "COC(=O)N[C@@H](C)C(=O)N1CCC[C@H]1c1nc2cc(C#Cc3ccc4c(c3)N=C([C@@H]3CCCN3C(=O)C(c3ccccc3)N(C)C)C4)ccc2[nH]1 (some centres unmarked) [Compound 59]", "readoutName": "EC50", "result": "≤ 5 nM"}
{"compound": "COC(=O)N(C)[C@H](C(=O)N1C[C@@H](C)C[C@H]1c1nc2ccc(-c3ccc(-c4ccc5nc([C@@H]6C[C@H](C)CN6C(=O)[C@H](C(C)C)N(C)C(=O)OC)n(C)c5c4)cc3)cc2[nH]1)C(C)C [Compound 296]", "readoutName": "EC50", "result": "≤ 5 nM"}
{"compound": "COC(=O)N[C@H](C(=O)N1[C@@H](C)CC[C@H]1c1nc2cc(C#CC#Cc3ccc4[nH]c([C@@H]5CC[C@H](C)N5C(=O)[C@@H](NC(=O)OC)C(C)C)nc4c3)ccc2[nH]1)C(C)C [Compound 324]", "readoutName": "EC50", "result": "≤ 5 nM"}

====

system: HCV (Ib) RNA replication; assay: Cell-based luciferase reporter HCV (1b) RNA replication assay (replicon cell lines Huh-7 5.2 and ET); set-up: species or system Hepatitis C virus; conditions: Hepatitis C virus, Huh-7, 96 h, HCV 1b genotype replicon, luciferase readout, 4 days incubation; read-out: EC50_1b
compounds and their reported EC50

{"chemSmiles": "Cn1c([C@@H]2CCCN2C(=O)OC(C)(C)C)nc2cc(-c3ccc(-c4ccc5[nH]c([C@@H]6CCCN6C(=O)OC(C)(C)C)nc5c4)cc3)ccc21", "EC50": "5 to 5000 nM"}
{"chemSmiles": "CC(C)(C)OC(=O)N1CCN(C(=O)OCc2ccccc2)[C@H](c2nc3cc(C#Cc4ccc5[nH]c([C@@H]6CN(C(=O)OC(C)(C)C)CCN6C(=O)OCc6ccccc6)nc5c4)ccc3[nH]2)C1", "EC50": "> 5000 nM"}
{"chemSmiles": "COC(=O)N[C@H](C(=O)N1CCC[C@H]1c1nc2cc(-c3ccc(-c4ccc5nc([C@@H]6CCCN6C(=O)[C@@H](NC(=O)OC)C(C)C)n(C)c5c4)cc3)ccc2[nH]1)C(C)C", "EC50": "≤ 5 nM"}

====

Recorded pEC50 values for a group of compounds are listed next.
test system: HCV (Ib) RNA replication; test: Cell-based luciferase reporter HCV (1b) RNA replication assay (replicon cell lines Huh-7 5.2 and ET); design: species or system Hepatitis C virus; conditions: HCV 1b genotype replicon, luciferase readout, 4 days incubation; read-out: EC50_1b
pEC50: −log10 of the molar value.

{"compound": "COC(=O)NC(C(=O)N1CCC[C@H]1c1nc2ccc(-c3ccc(-c4ccc5nc([C@@H]6CCCN6C(=O)[C@@H](NC(=O)OC)C(C)C)[nH]c5c4)cc3)cc2[nH]1)C(C)(C)C (stereo partly shown)", "pEC50": "≥ 8.30"}
{"compound": "COC(=O)NC(C(=O)N1CCCC1c1nc2cc(-c3ccc(-c4ccc5nc(C6CCCN6C(=O)C(NC(=O)OC)C(C)(C)C)[nH]c5c4)cc3)ccc2[nH]1)C(C)(C)C (stereo not shown) [Compound 191]", "pEC50": "≥ 8.30"}
{"compound": "COC(=O)N[C@H](C(=O)N1CC2CC2C1c1nc2cc(-c3ccc(-c4ccc5[nH]c(C6C7CC7CN6C(=O)[C@@H](NC(=O)OC)C(C)C)nc5c4)cc3)ccc2[nH]1)C(C)C (stereo partly shown)", "pEC50": "≥ 8.30"}
{"compound": "COC(=O)NC(C(=O)N1CCCC1c1nc2cc(-c3ccc(-c4ccc5nc(C6CCCN6C(=O)C(NC(=O)OC)C(C)(C)C)[nH]c5c4)cc3)ccc2[nH]1)C(C)(C)C (stereo not shown) [Compound 193]", "pEC50": "5.30 to 8.30"}

====

system: HCV (Ib) RNA replication; test: Cell-based luciferase reporter HCV (1b) RNA replication assay (replicon cell lines Huh-7 5.2 and ET); set-up: species or system Hepatitis C virus; details: Hepatitis C virus, Huh-7, 96 h, HCV 1b genotype replicon, luciferase readout, 4 days incubation; read-out: EC50_1b

{"compound": "COC(=O)N[C@H](C(=O)N1C[C@H](C)C[C@H]1c1nc2cc(-c3ccc(-c4ccc5[nH]c([C@@H]6C[C@@H](C)CN6C(=O)[C@@H](NC(=O)OC)C(C)C)nc5c4)cc3)ccc2[nH]1)C(C)C", "EC50": "≤ 5 nM"}
{"compound": "Cn1c([C@@H]2CCCN2C(=O)OC(C)(C)C)nc2cc(-c3ccc(-c4ccc5c(c4)nc([C@@H]4CCCN4C(=O)OC(C)(C)C)n5C)cc3)ccc21", "EC50": "> 5000 nM"}
{"compound": "CC(C)[C@H](NC(=O)NC1CCCC1)C(=O)N1CCCC1c1nc2cc(C#Cc3ccc4[nH]c([C@H]5CCCN5C(=O)[C@@H](NC(=O)NC5CCCC5)C(C)C)nc4c3)ccc2[nH]1 (some centres unmarked)", "EC50": "5 to 5000 nM"}
{"compound": "COC(=O)N[C@H](C(=O)N1CCC[C@H]1c1nc2cc(-c3ccc(-c4ccc5nc([C@@H]6CCCN6C(=O)[C@@H](NC(=O)OC)C(C)C)[nH]c5c4)cc3[N+](=O)[O-])ccc2[nH]1)C(C)C", "EC50": "≤ 5 nM"}
{"compound": "COC(=O)N[C@H](CN1CCC[C@H]1c1nc2cc(-c3ccc(-c4ccc5[nH]c([C@@H]6CCCN6C[C@@H](NC(=O)OC)C(C)C)nc5c4)cc3)ccc2[nH]1)C(C)C", "EC50": "5 to 5000 nM"}

====

tested on: HCV (Ib) RNA replication; experiment: Cell-based luciferase reporter HCV (1b) RNA replication assay (replicon cell lines Huh-7 5.2 and ET); set-up: species or system Hepatitis C virus; details: Hepatitis C virus, Huh-7, 96 h, HCV 1b genotype replicon, luciferase readout, 4 days incubation; read-out: EC50_1b
readoutName: EC50

{"chemSmiles": "COC(=O)N[C@H](C(=O)N1CC(C)(C)C[C@H]1c1nc2cc(-c3cc4sc(-c5ccc6[nH]c([C@@H]7CC(C)(C)CN7C(=O)[C@@H](NC(=O)OC)C(C)C)nc6c5)cc4s3)ccc2[nH]1)C(C)C", "result": "≤ 5 nM"}
{"chemSmiles": "COC(=O)N[C@H](C(=O)N1C[C@@H](C)C[C@H]1c1nc2cc(-c3sc4c(C)c(-c5ccc6[nH]c([C@@H]7C[C@H](C)CN7C(=O)[C@@H](NC(=O)OC)C(C)C)nc6c5)sc4c3C)ccc2[nH]1)C(C)C", "result": "≤ 5 nM"}
{"chemSmiles": "C[C@H]1C[C@@H](c2nc3ccc(-c4ccc(-c5ccc6nc([C@@H]7C[C@H](C)CN7C(=O)OC(C)(C)C)n(C)c6c5)cc4)cc3n2C)N(C(=O)OC(C)(C)C)C1", "result": "5 to 5000 nM"}
{"chemSmiles": "Cn1c([C@@H]2CCCN2C(=O)OC(C)(C)C)nc2ccc(-c3ccc(-c4ccc5nc([C@@H]6CCCN6C(=O)OC(C)(C)C)n(C)c5c4)cc3)cc21", "result": "5 to 5000 nM"}
{"chemSmiles": "COC(=O)N[C@H](C(=O)N1CCC[C@H]1c1nc2ccc(N3C[C@H](C)N(c4ccc5nc([C@@H]6CCCN6C(=O)[C@@H](NC(=O)OC)C(C)C)[nH]c5c4)C[C@H]3C)cc2[nH]1)C(C)C", "result": "≤ 5 nM"}

These measurements were taken from patent US8354419B2.
